# EXPERIMENTAL_SYSTEM: UniProt Q63449
# Sequence (Q63449 whole entry): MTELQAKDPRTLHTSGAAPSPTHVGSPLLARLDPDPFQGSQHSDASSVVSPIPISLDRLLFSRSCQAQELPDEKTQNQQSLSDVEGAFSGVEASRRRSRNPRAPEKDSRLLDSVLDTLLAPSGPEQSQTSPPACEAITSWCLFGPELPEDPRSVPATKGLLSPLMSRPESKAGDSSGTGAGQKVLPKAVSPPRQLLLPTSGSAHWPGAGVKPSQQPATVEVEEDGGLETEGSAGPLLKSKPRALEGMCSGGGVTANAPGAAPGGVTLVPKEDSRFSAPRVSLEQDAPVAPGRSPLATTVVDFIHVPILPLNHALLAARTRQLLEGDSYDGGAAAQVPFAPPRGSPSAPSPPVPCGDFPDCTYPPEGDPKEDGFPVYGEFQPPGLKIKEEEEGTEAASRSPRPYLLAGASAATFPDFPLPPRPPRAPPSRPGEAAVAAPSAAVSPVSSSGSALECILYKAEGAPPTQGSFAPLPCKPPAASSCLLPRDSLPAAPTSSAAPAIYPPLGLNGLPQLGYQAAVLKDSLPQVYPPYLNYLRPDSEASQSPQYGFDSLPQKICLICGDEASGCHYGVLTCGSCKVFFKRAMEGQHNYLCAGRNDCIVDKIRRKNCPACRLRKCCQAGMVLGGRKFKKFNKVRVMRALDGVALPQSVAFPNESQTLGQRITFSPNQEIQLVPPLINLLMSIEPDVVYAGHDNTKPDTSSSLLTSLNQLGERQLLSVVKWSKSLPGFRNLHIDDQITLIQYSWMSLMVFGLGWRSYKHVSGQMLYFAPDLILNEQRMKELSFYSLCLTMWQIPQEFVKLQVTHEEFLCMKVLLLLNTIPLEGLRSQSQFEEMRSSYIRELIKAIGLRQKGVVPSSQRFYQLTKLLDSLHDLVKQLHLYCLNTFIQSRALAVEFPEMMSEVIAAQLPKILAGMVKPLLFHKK
# PROTOCOL_DESCRIPTION: Binding affinity to progesterone receptor
METRIC_NAME: EC50 (nM)

                                   compound  metric_name  reading_unit  reported
0  C=CCC1Oc2cccc(OC)c2-c2ccc3c(c21)C(C)=CC(C)(C)N3 (stereo unspecified)         EC50            nM       126
